Target: T1, human CTLA4 (full-length, expressed on CHO cells) (human, UniProt P16410 36-223)
T1 construct: also called huCTLA4
T1 sequence (P16410 36-223): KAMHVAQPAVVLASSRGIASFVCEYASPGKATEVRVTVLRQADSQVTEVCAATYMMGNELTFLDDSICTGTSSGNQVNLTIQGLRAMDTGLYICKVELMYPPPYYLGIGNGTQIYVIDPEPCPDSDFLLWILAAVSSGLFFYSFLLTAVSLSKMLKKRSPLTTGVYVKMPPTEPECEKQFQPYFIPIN
Test: flow cytometry, CHO cells expressing huCTLA4, PE anti-human Fc
measurement kind: MFI at 33.3 nM (MFI)
Give bare numbers, in MFI.

Worked examples, 3 binders total:
binder: variant CD80 IgV-Fc Q33L/E35D/M47I/T62N/L85Q (Fc fusion, not shown: a dimerising Fc or GST) VIHVTKEVKEVATLSCGHNVSVEELAQTRIYWLKDKKMVLTMMSGDINIWPEYKNRTIFDINNNLSIVILALRPSDEGTYECVVQKYEKDAFKREHLAEVTLSVKAD
unit info: MFI
MFI at 33.3 nM: 1660
--
binder: variant CD80 IgV-Fc E35D/M47I/E77A/L85Q/R94W (Fc fusion, not shown: a dimerising Fc or GST) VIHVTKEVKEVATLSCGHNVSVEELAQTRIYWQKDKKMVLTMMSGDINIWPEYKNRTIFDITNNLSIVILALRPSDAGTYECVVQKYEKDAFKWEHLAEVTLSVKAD
unit info: MFI
MFI at 33.3 nM: 247000
--
binder: variant CD80 IgV-Fc Q33L/E35D/M47V/L85Q (Fc fusion, not shown: a dimerising Fc or GST) VIHVTKEVKEVATLSCGHNVSVEELAQTRIYWLKDKKMVLTMMSGDVNIWPEYKNRTIFDITNNLSIVILALRPSDEGTYECVVQKYEKDAFKREHLAEVTLSVKAD
unit info: MFI
MFI at 33.3 nM: 75400

Okay, now this binder:
In plain terms, variant CD80 IgV-Fc E35D/M47L/L85Q (Fc fusion, not shown: a dimerising Fc or GST) VIHVTKEVKEVATLSCGHNVSVEELAQTRIYWQKDKKMVLTMMSGDLNIWPEYKNRTIFDITNNLSIVILALRPSDEGTYECVVQKYEKDAFKREHLAEVTLSVKAD has a documented MFI at 33.3 nM of 336000
